Target: RORγ ligand binding domain (Homo sapiens (Human))
Sequence (P51449 whole entry, looked up, the tested form may be a part): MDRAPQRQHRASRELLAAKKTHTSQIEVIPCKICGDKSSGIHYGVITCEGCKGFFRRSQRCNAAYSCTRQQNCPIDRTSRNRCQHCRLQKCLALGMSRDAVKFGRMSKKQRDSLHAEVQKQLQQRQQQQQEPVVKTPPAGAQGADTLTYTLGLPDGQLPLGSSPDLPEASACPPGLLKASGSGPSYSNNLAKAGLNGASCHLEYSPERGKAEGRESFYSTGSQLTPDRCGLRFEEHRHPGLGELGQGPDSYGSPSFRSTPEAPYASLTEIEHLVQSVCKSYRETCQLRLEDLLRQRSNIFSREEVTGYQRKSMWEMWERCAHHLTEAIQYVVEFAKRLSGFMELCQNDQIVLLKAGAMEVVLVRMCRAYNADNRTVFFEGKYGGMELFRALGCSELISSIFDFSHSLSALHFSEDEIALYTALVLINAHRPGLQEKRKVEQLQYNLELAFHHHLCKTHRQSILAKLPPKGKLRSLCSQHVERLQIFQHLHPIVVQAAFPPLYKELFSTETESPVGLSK
Experiment: biochemical
Assay type: biochemical
quantityKind: IC50 (µM)

{"structure": "O=C(O)c1ccc(-n2cc(C(=O)c3c(Cl)cccc3C3CC3)c3cccc(F)c32)c(F)c1", "valueReported": 0.0429}

----------
Biological target: RORγ ligand binding domain (Homo sapiens (Human))
Assay: biochemical
Format: biochemical
Conditions: read-out: RORγ FRET-Mean IC50

{"compound": "O=C(O)c1ccc(-n2cc(C(=O)c3c(F)cccc3C(F)(F)F)c3cccc(F)c32)c(F)c1 [Comparator 5, reference compound]", "IC50": "111 nM"}
{"compound": "O=C(O)c1ccc(-n2cc(C(=O)c3c(F)cccc3C(F)(F)F)c3cccc(F)c32)cc1 [Comparator 2, reference compound]", "IC50": "61.9 nM"}
{"compound": "O=C(O)c1ccc(-n2cc(C(=O)c3c(Cl)cccc3C(F)(F)F)c3cccc(F)c32)cc1O [Compound 2]", "IC50": "17.9 nM"}
{"compound": "O=C(O)c1ccc(-n2cc(C(=O)c3c(Cl)cccc3C(F)(F)F)c3cccc(F)c32)c(F)c1 [Compound 3]", "IC50": "37.9 nM"}
